Tested on: PPARa:RXRa (NR concentration 270 nM, RXRa partner concentration 90 nM)
Assay: PBM binding z-score (relative to random genomic background probes); higher = stronger binding; sequences stand for … in GC…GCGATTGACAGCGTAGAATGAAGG
Property: PBM binding z-score

Please review the following examples before continuing.
{"columns": ["Biosequence", "PBM binding z-score"],
 "data": [
  ["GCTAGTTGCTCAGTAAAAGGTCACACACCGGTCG", 4.42],
  ["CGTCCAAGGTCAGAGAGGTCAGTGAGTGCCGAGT", 5.19],
  ["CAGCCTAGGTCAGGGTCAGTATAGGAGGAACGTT", 3.73]
]}

Switching to the query record.
q: What does the record list as PBM binding z-score for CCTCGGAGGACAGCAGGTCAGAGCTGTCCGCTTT ?
a: 0.521

---

Test system: PPARg:RXRa (NR concentration 180 nM, RXRa partner concentration 90 nM)
Assay: PBM binding z-score (relative to random genomic background probes); higher = stronger binding; sequences stand for … in GC…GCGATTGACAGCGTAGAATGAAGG
Property: PBM binding z-score
Numbers only.

Please review the following examples before continuing.
{"columns": ["Biosequence", "PBM binding z-score"],
 "data": [
  ["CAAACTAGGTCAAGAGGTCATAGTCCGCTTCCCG", 9.82],
  ["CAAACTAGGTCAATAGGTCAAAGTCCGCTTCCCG", 9.53],
  ["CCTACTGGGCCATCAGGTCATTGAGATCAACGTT", 3.04]
]}

Items follow; give PBM binding z-score for each.
1. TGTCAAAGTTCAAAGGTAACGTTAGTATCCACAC
2. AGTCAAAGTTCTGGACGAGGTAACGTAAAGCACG
3. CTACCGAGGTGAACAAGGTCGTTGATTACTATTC
4. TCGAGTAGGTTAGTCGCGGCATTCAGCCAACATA
5. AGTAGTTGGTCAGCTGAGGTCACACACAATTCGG
6. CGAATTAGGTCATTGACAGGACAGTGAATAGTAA
7. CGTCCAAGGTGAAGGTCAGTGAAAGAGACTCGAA
8. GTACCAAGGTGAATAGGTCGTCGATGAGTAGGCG

a:
1. 8.96
2. 0.557
3. 1.79
4. -0.37
5. 1.63
6. 6.83
7. 2.5
8. 1.5

Items follow; give PBM binding z-score for each.
1. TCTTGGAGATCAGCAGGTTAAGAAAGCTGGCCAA
2. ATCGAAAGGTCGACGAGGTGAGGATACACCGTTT
3. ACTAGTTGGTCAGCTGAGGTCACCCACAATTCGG
4. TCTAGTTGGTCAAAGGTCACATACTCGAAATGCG
5. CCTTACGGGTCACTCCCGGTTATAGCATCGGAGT
6. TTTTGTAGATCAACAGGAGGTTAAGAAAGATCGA
7. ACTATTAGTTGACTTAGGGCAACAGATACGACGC

a:
-0.546
3.09
1.42
10.8
2.63
0.596
0.94

Items follow; give PBM binding z-score for each.
1. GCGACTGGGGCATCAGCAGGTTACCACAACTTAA
2. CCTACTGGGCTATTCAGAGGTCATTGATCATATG
3. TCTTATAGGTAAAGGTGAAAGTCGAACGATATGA
4. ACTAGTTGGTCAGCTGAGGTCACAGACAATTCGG

a:
[0.922, 1.17, 3.38, 1.72]

---

Please respond with reported PBM binding z-score for every item in the list.
Tested on: VDR homodimer (NR concentration 270 nM)
Experiment: PBM binding z-score (relative to random genomic background probes); higher = stronger binding; sequences stand for … in GC…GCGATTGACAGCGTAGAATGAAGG

Please review the following examples before continuing.
{"columns": ["Biosequence", "PBM binding z-score"],
 "data": [
  ["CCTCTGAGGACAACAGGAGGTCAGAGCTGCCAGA", 1.69],
  ["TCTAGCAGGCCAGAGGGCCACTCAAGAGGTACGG", -0.232],
  ["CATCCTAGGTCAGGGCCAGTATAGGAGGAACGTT", 0.11],
  ["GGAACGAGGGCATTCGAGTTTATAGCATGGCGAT", 4.64],
  ["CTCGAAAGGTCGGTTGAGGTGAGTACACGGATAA", 1.71],
  ["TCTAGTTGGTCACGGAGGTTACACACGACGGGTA", 0.629],
  ["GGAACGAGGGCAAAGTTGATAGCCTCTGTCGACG", 1.54],
  ["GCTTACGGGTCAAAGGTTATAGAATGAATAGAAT", 1.96],
  ["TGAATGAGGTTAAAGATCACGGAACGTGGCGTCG", 0.625],
  ["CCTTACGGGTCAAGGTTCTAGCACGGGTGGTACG", 1.51]
]}

Items follow; give PBM binding z-score for each.
1. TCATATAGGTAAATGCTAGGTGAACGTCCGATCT
2. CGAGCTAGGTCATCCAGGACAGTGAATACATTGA
3. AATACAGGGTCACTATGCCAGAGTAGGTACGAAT

a:
1: 0.0802; 2: 1.91; 3: 2.48

Items follow; give PBM binding z-score for each.
1. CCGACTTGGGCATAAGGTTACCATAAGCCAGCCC
2. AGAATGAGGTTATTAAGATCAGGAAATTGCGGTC
3. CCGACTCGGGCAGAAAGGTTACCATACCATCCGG

a:
1. -0.535
2. 1.18
3. -0.0904

Items follow; give PBM binding z-score for each.
1. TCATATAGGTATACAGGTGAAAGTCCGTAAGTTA
2. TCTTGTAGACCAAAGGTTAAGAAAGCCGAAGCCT

a:
1. 0.541
2. -0.489

---

Test system: RXRa DBDmut IVT, anti-RXR (DBD mutation: RXRa K156A/R161A, NR concentration 90 nM)
Assay: PBM binding z-score (relative to random genomic background probes); higher = stronger binding; sequences stand for … in GC…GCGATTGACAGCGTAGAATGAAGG
Property: PBM binding z-score
Numbers only.

{"columns": ["Biosequence", "Target Or Test System", "PBM binding z-score"],
 "data": [
  ["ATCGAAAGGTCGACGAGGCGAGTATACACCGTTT", "RXRa DBDmut IVT, anti-RXR (DBD mutation: RXRa K156A/R161A, NR concentration 90 nM)", 1.28],
  ["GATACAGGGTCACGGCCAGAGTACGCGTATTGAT", "RXRa DBDmut IVT, anti-RXR (DBD mutation: RXRa K156A/R161A, NR concentration 90 nM)", 2.92],
  ["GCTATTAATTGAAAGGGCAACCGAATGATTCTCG", "RXRa DBDmut IVT, anti-RXR (DBD mutation: RXRa K156A/R161A, NR concentration 90 nM)", 0.65]
]}

Items follow; give PBM binding z-score for each.
1. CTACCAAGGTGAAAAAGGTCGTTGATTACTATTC
2. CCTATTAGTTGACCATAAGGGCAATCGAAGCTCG
3. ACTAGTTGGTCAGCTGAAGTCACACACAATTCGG
4. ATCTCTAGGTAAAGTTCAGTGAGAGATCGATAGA
5. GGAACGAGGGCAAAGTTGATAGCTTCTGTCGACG

a:
1. 1.01
2. 0.557
3. 0.337
4. 1.21
5. 2.55

---

Please respond with reported PBM binding z-score for every item in the list.
System: LXRa:RXRa (NR concentration 270 nM, RXRa partner concentration 90 nM)
Assay: PBM binding z-score (relative to random genomic background probes); higher = stronger binding; sequences stand for … in GC…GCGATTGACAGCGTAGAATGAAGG
Give bare numbers.

{"columns": ["Biosequence", "Target Or Test System", "PBM binding z-score"],
 "data": [
  ["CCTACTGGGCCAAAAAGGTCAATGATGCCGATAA", "LXRa:RXRa (NR concentration 270 nM, RXRa partner concentration 90 nM)", 3.48]
]}

Items follow; give PBM binding z-score for each.
1. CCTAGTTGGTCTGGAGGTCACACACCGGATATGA
2. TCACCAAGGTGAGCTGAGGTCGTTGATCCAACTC

a:
[4.06, 0.999]

---

Tested on: PPARg:RXRa 30nM:10nM, anti-RXR (NR concentration 30 nM, RXRa partner concentration 10 nM)
Assay: PBM binding z-score (relative to random genomic background probes); higher = stronger binding; sequences stand for … in GC…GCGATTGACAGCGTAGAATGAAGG
Would you mind sorting the entries by PBM binding z-score according to these classes? low class (below 0.6), middle class (0.6 to below 1), high class (1 or more)

Worked examples follow.
{"columns": ["Biosequence", "Target Or Test System", "Group Label"],
 "data": [
  ["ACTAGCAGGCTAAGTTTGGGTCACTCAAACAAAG", "PPARg:RXRa 30nM:10nM, anti-RXR (NR concentration 30 nM, RXRa partner concentration 10 nM)", "low class"],
  ["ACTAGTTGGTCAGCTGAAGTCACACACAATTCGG", "PPARg:RXRa 30nM:10nM, anti-RXR (NR concentration 30 nM, RXRa partner concentration 10 nM)", "low class"],
  ["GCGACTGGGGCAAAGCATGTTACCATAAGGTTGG", "PPARg:RXRa 30nM:10nM, anti-RXR (NR concentration 30 nM, RXRa partner concentration 10 nM)", "low class"],
  ["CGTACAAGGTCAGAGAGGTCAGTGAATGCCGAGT", "PPARg:RXRa 30nM:10nM, anti-RXR (NR concentration 30 nM, RXRa partner concentration 10 nM)", "high class"],
  ["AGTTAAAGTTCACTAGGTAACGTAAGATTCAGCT", "PPARg:RXRa 30nM:10nM, anti-RXR (NR concentration 30 nM, RXRa partner concentration 10 nM)", "high class"],
  ["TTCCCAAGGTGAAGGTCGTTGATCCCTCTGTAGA", "PPARg:RXRa 30nM:10nM, anti-RXR (NR concentration 30 nM, RXRa partner concentration 10 nM)", "middle class"]
]}

q: Record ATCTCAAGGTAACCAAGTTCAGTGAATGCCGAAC — which class?
a: low class

q: Record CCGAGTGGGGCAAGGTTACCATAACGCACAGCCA — which class?
a: middle class

q: Record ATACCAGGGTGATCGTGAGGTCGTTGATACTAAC — which class?
a: low class

q: Record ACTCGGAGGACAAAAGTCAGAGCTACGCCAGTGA — which class?
a: middle class

q: Record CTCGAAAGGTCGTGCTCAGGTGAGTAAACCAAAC — which class?
a: middle class

q: Record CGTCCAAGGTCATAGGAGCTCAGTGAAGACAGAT — which class?
a: high class

q: Record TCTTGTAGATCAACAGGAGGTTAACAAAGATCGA — which class?
a: high class

q: Record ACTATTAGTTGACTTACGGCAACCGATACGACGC — which class?
a: low class

q: Record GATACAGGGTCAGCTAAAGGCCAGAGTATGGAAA — which class?
a: middle class

q: Record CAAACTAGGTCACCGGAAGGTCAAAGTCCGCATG — which class?
a: high class

q: Record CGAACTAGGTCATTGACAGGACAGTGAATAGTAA — which class?
a: high class
